# test context: in methanol, 288.15 K
readout type: solubility (mole fraction)
Numbers only.

[in] // query solubility (mole fraction) value for entry CC1(C)[C@H](C(=O)O)[C@@H]1/C=C(\Cl)C(F)(F)F (racemic)
[out] 0.0664

====

# test context: in n-propanol, 313.15 K
readout type: solubility (mole fraction)
Give bare numbers.

[in] For CC1(C)[C@H](C(=O)O)[C@@H]1/C=C(\Cl)C(F)(F)F (racemic) , what is its reported solubility (mole fraction)?
[out] 0.173

====

# test context: in ethyl acetate, 288.15 K
readout type: solubility (mole fraction)
One number for each entry.

[in] What value of solubility (mole fraction) has been recorded for this entry: CC1(C)[C@H](C(=O)O)[C@@H]1/C=C(\Cl)C(F)(F)F (racemic)
[out] 0.0938

====

# test context: in tert-butanol, 293.15 K
readout type: solubility (mole fraction)
Answers are plain numbers.

[in] Which solubility (mole fraction) is reported for this compound? CC1(C)[C@H](C(=O)O)[C@@H]1/C=C(\Cl)C(F)(F)F (racemic)
[out] 0.169

====

# test context: in cyclohexane, 323.15 K
readout type: solubility (mole fraction)
One number for each entry.

[in] So what's the measured solubility (mole fraction) for this one? CC1(C)[C@H](C(=O)O)[C@@H]1/C=C(\Cl)C(F)(F)F (racemic)
[out] 0.0384

====

# test context: in n-propanol, 298.15 K
readout type: solubility (mole fraction)
Give bare numbers.

[in] GET /values?readout=solubility (mole fraction)&item= CC1(C)[C@H](C(=O)O)[C@@H]1/C=C(\Cl)C(F)(F)F (racemic)
[out] 0.109

====

# test context: in n-propanol, 318.15 K
readout type: solubility (mole fraction)
Answers are plain numbers.

[in] solubility (mole fraction) for CC1(C)[C@H](C(=O)O)[C@@H]1/C=C(\Cl)C(F)(F)F (racemic) ?
[out] 0.213

====

# test context: in methyl acetate, 308.15 K
readout type: solubility (mole fraction)
One number for each entry.

[in] Request the reported solubility (mole fraction) associated with CC1(C)[C@H](C(=O)O)[C@@H]1/C=C(\Cl)C(F)(F)F (racemic)
[out] 0.151

====

# test context: in methyl acetate, 293.15 K
readout type: solubility (mole fraction)
Numbers only.

[in] Given the entry CC1(C)[C@H](C(=O)O)[C@@H]1/C=C(\Cl)C(F)(F)F (racemic) , report its measured solubility (mole fraction).
[out] 0.0976

====

# test context: in sec-butanol, 303.15 K
readout type: solubility (mole fraction)
Numbers only.

[in] Fill blank: measured solubility (mole fraction) of the compound CC1(C)[C@H](C(=O)O)[C@@H]1/C=C(\Cl)C(F)(F)F (racemic) is ____.
[out] 0.179

====

# test context: in n-butyl acetate, 308.15 K
readout type: solubility (mole fraction)
Numbers only.

[in] Look at this molecule and give its reported solubility (mole fraction). CC1(C)[C@H](C(=O)O)[C@@H]1/C=C(\Cl)C(F)(F)F (racemic)
[out] 0.175

====

# test context: in ethyl acetate, 323.15 K
readout type: solubility (mole fraction)
One number for each entry.

[in] So what's the measured solubility (mole fraction) for this one? CC1(C)[C@H](C(=O)O)[C@@H]1/C=C(\Cl)C(F)(F)F (racemic)
[out] 0.243

====

# test context: in methanol, 298.15 K
readout type: solubility (mole fraction)
One number for each entry.

[in] # input compound: CC1(C)[C@H](C(=O)O)[C@@H]1/C=C(\Cl)C(F)(F)F (racemic) ; wanted: its solubility (mole fraction)
[out] 0.0813

====

# test context: in n-butanol, 313.15 K
readout type: solubility (mole fraction)
One number for each entry.

[in] Given CC1(C)[C@H](C(=O)O)[C@@H]1/C=C(\Cl)C(F)(F)F (racemic) , state its recorded solubility (mole fraction).
[out] 0.167

====

# test context: in sec-butanol, 313.15 K
readout type: solubility (mole fraction)

[in] Dear colleague, I am looking for the recorded solubility (mole fraction) of the following compound: CC1(C)[C@H](C(=O)O)[C@@H]1/C=C(\Cl)C(F)(F)F (racemic)
[out] 0.231

====

# test context: in n-butanol, 283.15 K
readout type: solubility (mole fraction)

[in] Suppose we examine the molecule CC1(C)[C@H](C(=O)O)[C@@H]1/C=C(\Cl)C(F)(F)F (racemic) ; what solubility (mole fraction) value has been reported?
[out] 0.0748

====

# test context: in n-butyl acetate, 323.15 K
readout type: solubility (mole fraction)
Give bare numbers.

[in] # solubility (mole fraction) lookup, item CC1(C)[C@H](C(=O)O)[C@@H]1/C=C(\Cl)C(F)(F)F (racemic)
[out] 0.247

====

# test context: in n-butanol, 323.15 K
readout type: solubility (mole fraction)
Numbers only.

[in] Any idea what solubility (mole fraction) was measured for CC1(C)[C@H](C(=O)O)[C@@H]1/C=C(\Cl)C(F)(F)F (racemic) ?
[out] 0.239

====

# test context: in cyclohexane, 313.15 K
readout type: solubility (mole fraction)
One number for each entry.

[in] Field request: solubility (mole fraction) | item: CC1(C)[C@H](C(=O)O)[C@@H]1/C=C(\Cl)C(F)(F)F (racemic)
[out] 0.0175

====

# test context: in cyclohexane, 308.15 K
readout type: solubility (mole fraction)
Numbers only.

[in] Need solubility (mole fraction), item CC1(C)[C@H](C(=O)O)[C@@H]1/C=C(\Cl)C(F)(F)F (racemic)
[out] 0.0119

====

# test context: in tert-butanol, 303.15 K
readout type: solubility (mole fraction)
One number for each entry.

[in] Looking for the measured solubility (mole fraction) of CC1(C)[C@H](C(=O)O)[C@@H]1/C=C(\Cl)C(F)(F)F (racemic) , can you help?
[out] 0.224

====

# test context: in isobutanol, 293.15 K
readout type: solubility (mole fraction)
Numbers only.

[in] What solubility (mole fraction) value was documented for this molecule, CC1(C)[C@H](C(=O)O)[C@@H]1/C=C(\Cl)C(F)(F)F (racemic) ?
[out] 0.099

====

# test context: in methanol, 308.15 K
readout type: solubility (mole fraction)

[in] Entry under review: CC1(C)[C@H](C(=O)O)[C@@H]1/C=C(\Cl)C(F)(F)F (racemic) . Reported solubility (mole fraction)?
[out] 0.119

====

# test context: in isobutanol, 318.15 K
readout type: solubility (mole fraction)
Answers are plain numbers.

[in] Using the record for CC1(C)[C@H](C(=O)O)[C@@H]1/C=C(\Cl)C(F)(F)F (racemic) , report its solubility (mole fraction).
[out] 0.2

====

# test context: in tert-butanol, 283.15 K
readout type: solubility (mole fraction)
Numbers only.

[in] Value lookup for solubility (mole fraction); key = CC1(C)[C@H](C(=O)O)[C@@H]1/C=C(\Cl)C(F)(F)F (racemic)
[out] 0.13

====

# test context: in n-propanol, 323.15 K
readout type: solubility (mole fraction)

[in] Which solubility (mole fraction) value is on record for CC1(C)[C@H](C(=O)O)[C@@H]1/C=C(\Cl)C(F)(F)F (racemic) ?
[out] 0.252

====

# test context: in ethanol, 303.15 K
readout type: solubility (mole fraction)
Give bare numbers.

[in] solubility (mole fraction) lookup needed for CC1(C)[C@H](C(=O)O)[C@@H]1/C=C(\Cl)C(F)(F)F (racemic) , thanks.
[out] 0.121

====

# test context: in tert-butanol, 308.15 K
readout type: solubility (mole fraction)
Numbers only.

[in] So what's the measured solubility (mole fraction) for this one? CC1(C)[C@H](C(=O)O)[C@@H]1/C=C(\Cl)C(F)(F)F (racemic)
[out] 0.247

====

# test context: in ethyl acetate, 283.15 K
readout type: solubility (mole fraction)
One number for each entry.

[in] # input molecule: CC1(C)[C@H](C(=O)O)[C@@H]1/C=C(\Cl)C(F)(F)F (racemic) ; wanted: its solubility (mole fraction)
[out] 0.0818

====

# test context: in tert-butanol, 313.15 K
readout type: solubility (mole fraction)
One number for each entry.

[in] Quick one: solubility (mole fraction) of CC1(C)[C@H](C(=O)O)[C@@H]1/C=C(\Cl)C(F)(F)F (racemic) ?
[out] 0.271

====

# test context: in n-butanol, 288.15 K
readout type: solubility (mole fraction)

[in] Field request: solubility (mole fraction) | item: CC1(C)[C@H](C(=O)O)[C@@H]1/C=C(\Cl)C(F)(F)F (racemic)
[out] 0.0848

====

# test context: in sec-butanol, 293.15 K
readout type: solubility (mole fraction)
Answers are plain numbers.

[in] So what's the measured solubility (mole fraction) for this one? CC1(C)[C@H](C(=O)O)[C@@H]1/C=C(\Cl)C(F)(F)F (racemic)
[out] 0.138

====

# test context: in sec-butanol, 308.15 K
readout type: solubility (mole fraction)
Numbers only.

[in] Give its solubility (mole fraction) value. Item: CC1(C)[C@H](C(=O)O)[C@@H]1/C=C(\Cl)C(F)(F)F (racemic)
[out] 0.204

====

# test context: in cyclohexane, 293.15 K
readout type: solubility (mole fraction)
One number for each entry.

[in] Please give the measured solubility (mole fraction) for this compound: CC1(C)[C@H](C(=O)O)[C@@H]1/C=C(\Cl)C(F)(F)F (racemic)
[out] 0.00447

Just for reference, BigSolDB 2.1 is where these values come from.
